Where do these numbers come from? They come from patent US20200392084A1.

# test: Solvent solubility screen
# Format: physicochemical
# assay context: 1,4-dioxane, 40 °C, organic solvent or mixture, thermodynamic from solid; 1,4-Dixoane; read-out: Approx. Solubility
experimental endpoint: solubility

Specify solubility for O=C(O)c1cc(/N=N/c2ccc(S(=O)(=O)Nc3ccccn3)cc2)ccc1O and stop. < 5000 µg/mL

----------
# test: Solvent solubility screen
# Format: physicochemical
# assay context: acetone/water (50:50), 40 °C, aqueous with cosolvent or surfactant or cyclodextrin, thermodynamic from solid; read-out: Approx. Solubility
experimental endpoint: solubility

Return reported solubility. Input compound: O=C(O)c1cc(/N=N/c2ccc(S(=O)(=O)Nc3ccccn3)cc2)ccc1O [Sulfasalazine] < 5000 µg/mL

----------
# test: Solvent solubility screen
# Assay type: physicochemical
# assay context: 2-propanol/water (50:50), 40 °C, aqueous with cosolvent or surfactant or cyclodextrin, thermodynamic from solid; read-out: Approx. Solubility
experimental endpoint: solubility

Fill in solubility for record O=C(O)c1cc(/N=N/c2ccc(S(=O)(=O)Nc3ccccn3)cc2)ccc1O < 5000 µg/mL

----------
# test: Solvent solubility screen
# Type: physicochemical
# assay context: toluene, 40 °C, organic solvent or mixture, thermodynamic from solid; read-out: Approx. Solubility
experimental endpoint: solubility

Supply recorded solubility for O=C(O)c1cc(/N=N/c2ccc(S(=O)(=O)Nc3ccccn3)cc2)ccc1O [Sulfasalazine] here. < 5000 µg/mL

----------
# test: Solvent solubility screen
# Format: physicochemical
# assay context: dichloromethane, 40 °C, organic solvent or mixture, thermodynamic from solid; read-out: Approx. Solubility
experimental endpoint: solubility

Answer with the recorded solubility for the compound listed here: O=C(O)c1cc(/N=N/c2ccc(S(=O)(=O)Nc3ccccn3)cc2)ccc1O [Sulfasalazine] < 5000 µg/mL

----------
# test: physchem
# assay context: ethanol, organic solvent or mixture
experimental endpoint: solubility
State the value with its unit after it.

Note down solubility recorded for O=C(O)c1cc(/N=N/c2ccc(S(=O)(=O)Nc3ccccn3)cc2)ccc1O 500 µg/mL

----------
# test: Solvent solubility screen
# Format: physicochemical
# assay context: methyl ethyl ketone, 40 °C, organic solvent or mixture, thermodynamic from solid; Methylethyl Ketone; read-out: Approx. Solubility
experimental endpoint: solubility

Tell me its solubility given O=C(O)c1cc(/N=N/c2ccc(S(=O)(=O)Nc3ccccn3)cc2)ccc1O as the entry. < 5000 µg/mL

----------
# test: Solvent solubility screen
# Format: physicochemical
# assay context: isopropyl acetate, 40 °C, organic solvent or mixture, thermodynamic from solid; read-out: Approx. Solubility
experimental endpoint: solubility

State its solubility: O=C(O)c1cc(/N=N/c2ccc(S(=O)(=O)Nc3ccccn3)cc2)ccc1O < 5000 µg/mL

----------
# test: Solvent solubility screen
# Assay type: physicochemical
# assay context: 2-propanol, 40 °C, organic solvent or mixture, thermodynamic from solid; read-out: Approx. Solubility
experimental endpoint: solubility

Dear colleague, please send me the reported solubility for O=C(O)c1cc(/N=N/c2ccc(S(=O)(=O)Nc3ccccn3)cc2)ccc1O when you can. < 5000 µg/mL

----------
# test: Solvent solubility screen
# Type: physicochemical
# assay context: ethyl formate, 40 °C, organic solvent or mixture, thermodynamic from solid; read-out: Approx. Solubility
experimental endpoint: solubility

# return recorded solubility for entry O=C(O)c1cc(/N=N/c2ccc(S(=O)(=O)Nc3ccccn3)cc2)ccc1O < 5000 µg/mL

----------
# test: pKa determination (UV-metric)
# Format: physicochemical
# assay context: 0.15 M KCl, Type Acid (first acidic group), 25.0 °C
experimental endpoint: pKa

Return pKa for the following molecule: O=C(O)c1cc(/N=N/c2ccc(S(=O)(=O)Nc3ccccn3)cc2)ccc1O 2.29
